biological target: T1, mTOR(FRB) and FKBP12 interaction (Homo sapiens, UniProt P42345+P62942); experiment: Degree of fluorescent focus (assembly) formation after rapamycin, fluorescent proteins fused to mTOR(FRB) (Example 8, Table 1); assay type: cell-based; parameters: key: +++: fluorescent foci were observed in 50% or more of the HeLaS3 cells; ++: fluorescent foci were observed in 50% or less of the HeLaS3 cells; +: fluorescent foci were observed in 293T cells expressing a larger amount of proteins than that in the HeLaS3 cells; conditions: fluorescent protein fused to mTOR(FRB), with FKBP12-Tankyrase(SAM), some combinations in 293T cells
T1 construct: region having the 2025th to 2114th amino acids of the mTOR protein; expressed in transfected cells; host or cells: HeLaS3; 293T for some combinations with FKBP12-Tankyrase(SAM)
T1 sequence (P42345 2025-2114): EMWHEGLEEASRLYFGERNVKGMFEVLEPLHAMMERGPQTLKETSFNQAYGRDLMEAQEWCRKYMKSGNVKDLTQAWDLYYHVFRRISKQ
T1 sequence (P62942 whole entry, the tested form may be a part): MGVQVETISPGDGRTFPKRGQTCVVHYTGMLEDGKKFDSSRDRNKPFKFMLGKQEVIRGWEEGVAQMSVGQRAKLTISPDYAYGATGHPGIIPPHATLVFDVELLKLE
measurement-name: degree of fluorescent focus formation, Tankyrase (SAM)

molecule: monomeric Kusabira-Orange 2 (protein, Synethetic sequence of monomeric version pf KO(Kusabira-Orange)) MVSVIKPEMKMRYYMDGSVNGHEFTIEGEGTGRPYEGHQEMTLRVTMAEGGPMPFAFDLVSHVFCYGHRVFTKYPEEIPDYFKQAFPEGLSWERSLEFEDGGSASVSAHISLRGNTFYHKSKFTGVNFPADGPIMQNQSVDWEPSTEKITASDGVLKGDVTMYLKLEGGGNHKCQMKTTYKAAKEILEMPGDHYIGHRLVRKTEGNITEQVEDAVAHS
data-value: +
--
molecule: TGuv: fluorescent protein capable of homotetramerization, SEQ ID NO: 147 (protein, Synthetic sequence TGuv) MVSVIGKDMIMKLHVEGCVNGHSFKIEGDGKGKPYEGDQTVKLRVTEGGPLPFAFDILSASMCYGNRCFTKYPAEIPDIFKQTFPEGYSWERALTFEDGGFASSSSHISVRGNCFFYDVKYHGVNFPSNGPIMQRKTIGWQPSTEKLYIGEGTLKGDDTMFLKLEGGGTHKCHVLTTYKTKKDVQMPDSHFIDHRLLTSHLDKECNNVELREHAVARNSSLPSR
data-value: +
